assay: phase I trial safingol with doxorubicin: plasma pharmacokinetics; assay type: in vivo, patients; conditions: human, intravenous, 60 mg/m2, dose level 60 mg/m^2, read-out: AUC without DOX (first column)
Reported property: AUC (µg·h/mL)

> print(dat)
                                   molecule  reported.property  units.of.measure  reading
1  CCCCCCCCCCCCCCC[C@H](O)[C@@H](N)CO [safingol, L-threo-dihydrosphingosine]                AUC           µg·h/mL    0.531

----------
experiment: preclinical pharmacology of safingol; settings: mouse, in vivo; mice; 20 mg/kg safingol
Reported property: AUC (ng·h/mL)

> print(dat)
                                   molecule  reading
1  CCCCCCCCCCCCCCC[C@H](O)[C@@H](N)CO [safingol, L-threo-dihydrosphingosine]     2700

----------
experiment: phase I trial safingol with doxorubicin: plasma pharmacokinetics; format: in vivo, patients; conditions: human, intravenous, 15 mg/m2, dose level 15 mg/m^2, read-out: AUC without DOX (second column)
Reported property: AUC (ng·h/mL)

> print(dat)
                                   compound  reading
1  CCCCCCCCCCCCCCC[C@H](O)[C@@H](N)CO [safingol, L-threo-dihydrosphingosine]      161

----------
experiment: phase I trial safingol with doxorubicin: plasma pharmacokinetics; format: in vivo, patients; details: human, intravenous, 60 mg/m2, dose level 60 mg/m^2
Reported property: Cmax (ng/mL)

> print(dat)
                                   compound  reading
1  CCCCCCCCCCCCCCC[C@H](O)[C@@H](N)CO [safingol, L-threo-dihydrosphingosine]      422

----------
assay: phase I trial safingol with doxorubicin: plasma pharmacokinetics; assay type: in vivo, patients; conditions: human, intravenous, 60 mg/m2, dose level 60 mg/m^2, read-out: AUC without DOX (second column)
Reported property: AUC (ng·h/mL)

> print(dat)
                                   compound  reading
1  CCCCCCCCCCCCCCC[C@H](O)[C@@H](N)CO [safingol, L-threo-dihydrosphingosine]      501

----------
experiment: phase I trial safingol with doxorubicin: plasma pharmacokinetics; assay type: in vivo, patients; settings: human, intravenous, 120 mg/m2, dose level 120 mg/m^2, read-out: AUC without DOX (first column)
Reported property: AUC (ng·h/mL)

> print(dat)
                                   compound  reading
1  CCCCCCCCCCCCCCC[C@H](O)[C@@H](N)CO [safingol, L-threo-dihydrosphingosine]     1230

----------
assay: preclinical pharmacology of safingol; settings: mouse, in vivo; mice; 5 mg/kg safingol
Reported property: AUC (ng·h/mL)

> print(dat)
                                   compound  reported.property  reading
1  CCCCCCCCCCCCCCC[C@H](O)[C@@H](N)CO [safingol, L-threo-dihydrosphingosine]                AUC      668

----------
test: phase I trial safingol with doxorubicin: plasma pharmacokinetics; type: in vivo, patients; details: human, intravenous, 30 mg/m2, dose level 30 mg/m^2
Reported property: Cmax (ng/mL)

> print(dat)
                                   compound  reported.property  units.of.measure  reading
1  CCCCCCCCCCCCCCC[C@H](O)[C@@H](N)CO [safingol, L-threo-dihydrosphingosine]               Cmax             ng/mL      336

----------
assay: phase I trial safingol with doxorubicin: plasma pharmacokinetics; type: in vivo, patients; conditions: human, intravenous, 15 mg/m2, dose level 15 mg/m^2
Reported property: Cmax

> print(dat)
                                   compound    reading
1  CCCCCCCCCCCCCCC[C@H](O)[C@@H](N)CO [safingol, L-threo-dihydrosphingosine]  199 ng/mL

----------
test system: OV432; assay: trypan blue exclusion and alamar blue assays; assay type: cell-based; settings: FLAVO 24 hours
pIC50: −log10 of the molar value. Where a name gives a salt, the structure may show the parent alone.
Reported property: pIC50

> print(dat)
                                   compound  reported.property  reading
1  CN1CC[C@H](c2c(O)cc(O)c3c(=O)cc(-c4ccccc4Cl)oc23)[C@H](O)C1 (relative stereo) [flavopiridol, hydrochloride]              pIC50     7.00

----------
test: preclinical pharmacology of safingol; details: mouse, in vivo; mice; 20 mg/kg safingol
Reported property: Cmax (ng/mL)

> print(dat)
                                   compound  reported.property  reading
1  CCCCCCCCCCCCCCC[C@H](O)[C@@H](N)CO [safingol, L-threo-dihydrosphingosine]               Cmax     7020

----------
experiment: preclinical pharmacology of safingol; details: mouse, in vivo; mice; 5 mg/kg safingol
Reported property: Cmax (ng/mL)

> print(dat)
                                   molecule  reported.property  reading
1  CCCCCCCCCCCCCCC[C@H](O)[C@@H](N)CO [safingol, L-threo-dihydrosphingosine]               Cmax     1800

----------
assay: phase I trial safingol with doxorubicin: plasma pharmacokinetics; type: in vivo, patients; details: human, intravenous, 120 mg/m2, dose level 120 mg/m^2
Reported property: Cmax (ng/mL)

> print(dat)
                                   compound  reading
1  CCCCCCCCCCCCCCC[C@H](O)[C@@H](N)CO [safingol, L-threo-dihydrosphingosine]      988

----------
assay: phase I trial safingol with doxorubicin: plasma pharmacokinetics; type: in vivo, patients; conditions: human, intravenous, 30 mg/m2, dose level 30 mg/m^2, read-out: AUC without DOX (second column)
Reported property: AUC (ng·h/mL)

> print(dat)
                                   molecule  reading
1  CCCCCCCCCCCCCCC[C@H](O)[C@@H](N)CO [safingol, L-threo-dihydrosphingosine]      428
